src = patent US10071998B2

Tested on: CSF levels of Aβ1-40 (Aβ40)
test-summary: Aβ Reduction In Vivo (rat CSF Aβ40)
assay-setup: 3 h, Table 2, male CD IGS rats, 10 mg/kg oral gavage, CSF three hours after administration, percent change vs vehicle cohort
Excerpt: Assay 3: Aβ Reduction In Vivo The in vivo efficacy and/or potency of BACE inhibitors (test compounds) can be evaluated using a variety of animal models, including mouse, rat, dog, and monkey, and these animals can be wild type, transgenic, or gene knockout animals. […]
Use -50% as the dividing line for change in vivo at 10 mg/kg, with the line itself on the T side and lower values as F.

molecule="COc1cnc2c(Nc3ccc(F)c([C@]4(C)CS(=O)(=O)N(C)C(=N)N4)c3)nccc2n1 [Example 9]" group_label=F
molecule="COc1cnc2c(Nc3ccc(F)c([C@]4(C)CS(=O)(=O)N(C)C(=N)N4)c3)ncnc2c1 [Example 14]" group_label=F
molecule="CN1C(=N)N[C@](C)(c2cc(Nc3nccc4cc(F)cnc34)ccc2F)CS1(=O)=O [Example 8]" group_label=T
molecule="COc1cnc2c(Nc3ccc(F)c([C@]4(C)CS(=O)(=O)N(C)C(=N)N4)c3)nccc2c1 [Example 4]" group_label=T
molecule="CN1C(=N)N[C@](C)(c2cc(Nc3nccc4nc(C(F)F)cnc34)ccc2F)CS1(=O)=O [Example 12]" group_label=T

Here is the next item to consider.
Request: # bool: change in vivo at 10 mg/kg of CN1C(=N)N[C@](C)(c2cc(Nc3ncnc4cc(C#N)cnc34)ccc2F)CS1(=O)=O [Example 7] >= -50%
Result: T
